# tested target: E. coli CsgA (Escherichia coli)
# Construct: made in house; host or cells: E. coli NEB 3016 slyD::kan, pET11d
# Sequence (P28307 23-151): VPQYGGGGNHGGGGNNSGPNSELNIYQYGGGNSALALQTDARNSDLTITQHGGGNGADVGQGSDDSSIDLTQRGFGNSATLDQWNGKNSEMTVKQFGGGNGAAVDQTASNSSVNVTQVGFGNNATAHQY
# assay comment: In vitro ThioflavinT assay of CsgA aggregation (CsgA ThT Assay)
# Type: biochemical
# assay setup: read-out: CsgA ThT Assay (10 μM CsgA) % Control AUC at 1005 minutes, 100 μM, mean AUC as % of DMSO control; CsgA 10 μM, black plates; compound 100 μM; 1005 minutes

{"columns": ["compound", "tested target", "unit of measure", "remaining activity at 100 µM"],
 "data": [
  ["O=C(O)C1CN(CCCCO)S(=O)(=O)c2c(-c3cccc(C(F)(F)F)c3)c(Cc3cccc4ccccc34)cc(=O)n21 (stereo not shown) [Compound 085]", "E. coli CsgA (Escherichia coli)", "%", 18],
  ["O=C(O)C1CSc2c(-c3cccc(C(F)(F)F)c3)c(Cc3cccc4ccccc34)nc(=O)n21 (stereo not shown) [Compound 022]", "E. coli CsgA (Escherichia coli)", "%", 23],
  ["O=C(O)C1CN(CCCCCO)S(=O)(=O)c2c(-c3cccc(C(F)(F)F)c3)c(Cc3cccc4ccccc34)c(NC3CCCC3)c(=O)n21 (stereo not shown) [Compound 122]", "E. coli CsgA (Escherichia coli)", "%", 15],
  ["O=C(O)C1CS(=O)(=O)c2c(-c3cccc(C(F)(F)F)c3)c(Cc3cccc4ccccc34)cc(=S)n21 (single isomer, unassigned) [Compound 014a]", "E. coli CsgA (Escherichia coli)", "%", 29],
  ["CCCCN1CC(C(=O)O)n2c(c(-c3cccc(C(F)(F)F)c3)c(Cc3cccc4ccccc34)c(N)c2=O)S1(=O)=O (stereo not shown) [Compound 093]", "E. coli CsgA (Escherichia coli)", "%", 37],
  ["O=C(O)C1n2c(c(-c3cccc(C(F)(F)F)c3)c(Cc3cccc4ccccc34)nc2=O)SC12CCCC2 (stereo not shown) [Compound 053]", "E. coli CsgA (Escherichia coli)", "%", 12],
  ["O=C(O)C1CNc2c(-c3cccc(C(F)(F)F)c3)c(Cc3cccc4ccccc34)cc(=O)n21 (stereo not shown) [Compound 080]", "E. coli CsgA (Escherichia coli)", "%", 72],
  ["Cn1c(=O)c2c(ncn2CCCCCN2CC(C(=O)O)n3c(c(-c4cccc(C(F)(F)F)c4)c(Cc4cccc5ccccc45)cc3=O)S2(=O)=O)n(C)c1=O (stereo not shown) [Compound 034]", "E. coli CsgA (Escherichia coli)", "%", 95],
  ["CCCN1CC(C(=O)O)n2c(c(-c3cccc(C(F)(F)F)c3)c(Cc3cccc4ccccc34)c(NCC3CCCC3)c2=O)S1(=O)=O (stereo not shown) [Compound 128]", "E. coli CsgA (Escherichia coli)", "%", 28],
  ["CN(C)Cc1c(Cc2cccc3ccccc23)c(-c2cccc(C(F)(F)F)c2)c2n(c1=O)C(C(=O)O)CS2 (stereo not shown) [Compound 075]", "E. coli CsgA (Escherichia coli)", "%", 117],
  ["C=Cc1c(Cc2cccc3ccccc23)c(-c2cccc(C(F)(F)F)c2)c2n(c1=O)C(C(=O)O)CN(C)S2(=O)=O (stereo not shown) [Compound 078]", "E. coli CsgA (Escherichia coli)", "%", 12],
  ["Nc1c(Cc2cccc3ccccc23)c(-c2cccc(C(F)(F)F)c2)c2n(c1=O)C(C(=O)O)CN(CCCO)S2(=O)=O (stereo not shown) [Compound 097]", "E. coli CsgA (Escherichia coli)", "%", 41],
  ["Nc1c(Cc2ccc(N)c3ccccc23)c(-c2cccc(C(F)(F)F)c2)c2n(c1=O)C(C(=O)O)CNS2(=O)=O (stereo not shown) [Compound 041]", "E. coli CsgA (Escherichia coli)", "%", 27]
]}

Source listed as patent US20230131899A1.
